A collection of compounds and their measured melting point

Some compounds with known melting point results, for comparison:
CC(=O)O[C@@H]1[C@@H](OC(C)=O)[C@H](C)O[C@@H](OC[C@H]2O[C@H](Br)[C@H](OC(C)=O)[C@@H](OC(C)=O)[C@@H]2OC(C)=O)[C@@H]1OC(C)=O
120 to 125 °C
CS(=O)(=O)c1ccc(-c2oc(COc3ccccn3)nc2-c2ccc(F)cc2)cc1
276 to 278 °C
COC(=O)CCCCCNC(=O)C[C@H]1O[C@H](c2cccc(OC)c2OC)c2cc(Cl)ccc2N(CC(C)(C)CO)C1=O
131 to 132 °C
O=[N+]([O-])c1ccc(-c2ccc(S(=O)c3ccc(Cl)c([N+](=O)[O-])c3)cc2)cc1 (centres undefined)
220 to 222 °C
CNc1nc2ccccc2cc1N
133 to 136 °C

Task: What melting point value was documented for this compound, CS(=O)(=O)OCC(O)(CC(Cl)(Cl)Cl)c1cc(Cl)cc(Cl)c1 (centres undefined) ?
Result: 99 to 104 °C

Task: What melting point value was documented for this compound, CCCCCCCCCCCCCCCCCCCC1CN(C(=O)c2cc(OC)c(OC)c(OC)c2)CCN1C(=O)c1cc(OC)c(OC)c(OC)c1 (centres undefined) ?
Result: 76 °C

Task: What melting point value was documented for this compound, `Cc1cc(C)n2ncc(F)c2n1` ?
Result: 129 to 130 °C

Task: What melting point value was documented for this compound, `CNc1nc(OCc2ccccc2)ccc1[N+](=O)[O-]` ?
Result: 149 °C

Task: What melting point value was documented for this compound, `Nc1nc2ccnc(-c3cccc(C=O)c3)n2n1` ?
Result: 205 to 208 °C

Task: What melting point value was documented for this compound, `CCCCc1c(C(=O)OCC)[nH]c2c(Br)cccc2c1=O` ?
Result: 88 °C

Task: What melting point value was documented for this compound, `COc1ccc(CNc2nc(N(C)CCO)ncc2C(=O)c2cc(OC)c(OC)c(OC)c2)cc1Cl` ?
Result: 166 to 168 °C

Task: What melting point value was documented for this compound, CCCCCCCCCCCCCCCCCC(O)c1ccc(C(=O)O)c(Cl)c1 (centres undefined) ?
Result: 93 to 96 °C

Task: What melting point value was documented for this compound, `N#Cc1ccc2c(c1)Sc1ccc(Cl)cc1C=C2` ?
Result: 207 to 210 °C

---

ASSAY_READOUT: melting point

Some compounds with known melting point results, for comparison:
CSCC(=O)[C@H](Cc1ccc(Cl)cc1)NC(=O)[C@H](CC(C)C)NC(=O)OCc1ccccc1
119 to 121 °C
CCc1cn(C2CC(I)C(CO)O2)c(=O)[nH]c1=O (stereo unspecified)
162 to 164 °C
O=C(O)CN1C(=O)C(=Cc2ccc(Cl)cc2)SC1=S
272 to 274 °C

Task: What melting point value was documented for this compound, `N#CC(=NO)c1c(Cl)cccc1Cl` ?
Result: 94 to 96 °C

Task: What melting point value was documented for this compound, `CCOC(=O)Nc1ccc(C(=O)OC)cc1` ?
Result: 159 to 162 °C

Task: What melting point value was documented for this compound, `N#Cc1ccc(C=Nc2c3c(nc4ccccc24)CCCC3)cc1` ?
Result: 204 to 205 °C

Task: What melting point value was documented for this compound, `Nc1cc(C(F)(F)F)cc([N+](=O)[O-])c1N` ?
Result: 121 to 123 °C

Task: What melting point value was documented for this compound, `CC(=O)Nc1nc2ccc(S(=O)(=O)n3c(CCC(=O)O)cc4cc(C(F)(F)F)ccc43)cc2s1` ?
Result: 290 to 292 °C

Task: What melting point value was documented for this compound, `COc1cc(COc2cc(C=O)n(-c3ccccc3)n2)ccc1OCc1nc(-c2ccccc2)oc1C` ?
Result: 119 to 120 °C

Task: What melting point value was documented for this compound, `O=C(O)C=CC=Cc1cccc2cncn12` ?
Result: 243 to 245 °C
